Data origin: patent US20260250737A1

Run description: Stability of LuxSit-i variants (yeast display protease resistance, static light scattering)
Format: physicochemical
Test settings: Table 2; single substitutions; relative to LuxSit-i
Source text: In certain aspects, these polypeptides have improved stability at high temperatures as compared to LuxSit-i. For example, these polypeptides are stable at higher temperatures as compared to LuxSit-i. Stability may be measured by enzymatic activity and/or protein misfolding measured over a period of time. In certain embodiments, stability may be measured using static light scattering (SLS). […]

{"columns": ["Molecule", "Stability improvement"],
 "data": [
  ["MBIO-156: LuxSit-i variant H87L, SEQ ID NO 88 (protein) MSEEQIRQFLRRFYEALDSGDADTAASLFHPGVTIHLWDGVTFTSREEFREWFERLFSTSKDAQREIKSLEVRGDTVEVHVQLHATLNGQKHTVDLTHHWHFRGNRVTEVRVHINPTG", "No change"],
  ["MBIO-150: LuxSit-i variant F9S, SEQ ID NO 73 (protein) MSEEQIRQSLRRFYEALDSGDADTAASLFHPGVTIHLWDGVTFTSREEFREWFERLFSTSKDAQREIKSLEVRGDTVEVHVQLHATHNGQKHTVDLTHHWHFRGNRVTEVRVHINPTG", "Monomeric"],
  ["MBIO-149: LuxSit-i variant A85F, SEQ ID NO 82 (protein) MSEEQIRQFLRRFYEALDSGDADTAASLFHPGVTIHLWDGVTFTSREEFREWFERLFSTSKDAQREIKSLEVRGDTVEVHVQLHFTHNGQKHTVDLTHHWHFRGNRVTEVRVHINPTG", "No change"],
  ["MBIO-158: LuxSit-i variant W100F (protein) MSEEQIRQFLRRFYEALDSGDADTAASLFHPGVTIHLWDGVTFTSREEFREWFERLFSTSKDAQREIKSLEVRGDTVEVHVQLHATHNGQKHTVDLTHHFHFRGNRVTEVRVHINPTG", "Monomeric"],
  ["MBIO-157: LuxSit-i variant Q64W, SEQ ID NO 47 (protein) MSEEQIRQFLRRFYEALDSGDADTAASLFHPGVTIHLWDGVTFTSREEFREWFERLFSTSKDAWREIKSLEVRGDTVEVHVQLHATHNGQKHTVDLTHHWHFRGNRVTEVRVHINPTG", "No change"]
]}
